molecular target: Fuc(a1-2)[Gal(a1-3)]Gal(b1-4)GlcNAc(b1-2)Man(a1-3)[Fuc(a1-2)[Gal(a1-3)]Gal(b1-4)GlcNAc(b1-2)Man(a1-6)]Man(b1-4)GlcNAc(b1-4)[Fuc(a1-6)]GlcNAc; assay: glycan array binding signal (z-score within array); higher = stronger binding; conditions: glycan notation: IUPAC condensed, linker removed
Only a selection was taken, and the strongest signals are over-represented in it overall.
Record t whenever glycan array binding signal (z-score) is at -0.3 or higher; record f when lower.

As a guide, the following entries are already answered.
Flo1 (Saccharomyces cerevisiae), P32768 (protein) SGATEACLPAGQRKSGMNINFYQYSLKDSSTYSNAAYMAYGYASKTKLGSVGGQTDISIDYNIPCVSSSGTFPCPQEDSYGNWGCKGMGACSNSQGIAYWSTDLFGFYTTPTNVTLEMTGYFLPPQTGSYTFKFATVDDSAILSVGGATAFNCCAQQQPPITSTNFTIDGIKPWGGSLPPNIEGTVYMYAGYYYPMKVVYSNAVSWGTLPISVTLPDGTTVSDDFEGYVYSFDDDLSQSNCTVPDPSNY | t
Wzz (Escherichia coli) (protein) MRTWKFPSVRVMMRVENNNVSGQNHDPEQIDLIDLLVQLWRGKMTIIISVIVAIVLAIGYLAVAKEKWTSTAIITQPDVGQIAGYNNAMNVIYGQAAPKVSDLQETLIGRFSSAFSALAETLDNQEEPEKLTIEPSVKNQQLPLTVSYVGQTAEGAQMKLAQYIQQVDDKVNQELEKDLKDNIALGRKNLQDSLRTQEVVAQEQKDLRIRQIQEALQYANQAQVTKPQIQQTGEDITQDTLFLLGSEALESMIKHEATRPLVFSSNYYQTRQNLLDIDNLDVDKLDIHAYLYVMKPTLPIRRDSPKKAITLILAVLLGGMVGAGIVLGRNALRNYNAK | t
Epa8 (Candida glabrata) (protein) MGSSHHHHHHSSGLVPRGSHMASSRALSDYPLGCSPLLGTKLTPGLSMELYEYPLDNHGIGPHCWDPAYLNPEYPRTGFESHKLIGTAQNVMSLNFEHRTQDCHVEFSNLPASFNFPDQITLTNFTMLLYGYFKPKESGRYRFHMEADDLLLMNLGAGNAFDCCAHEATRNNLGDYIAYDIWAGTRKDVEVFLEKEVFYPLRLFFNNRDGRAALDFSYYLNGATEPGTDIPELLFSLPDGESCPAYI | t
Tp0751, 83732 (protein) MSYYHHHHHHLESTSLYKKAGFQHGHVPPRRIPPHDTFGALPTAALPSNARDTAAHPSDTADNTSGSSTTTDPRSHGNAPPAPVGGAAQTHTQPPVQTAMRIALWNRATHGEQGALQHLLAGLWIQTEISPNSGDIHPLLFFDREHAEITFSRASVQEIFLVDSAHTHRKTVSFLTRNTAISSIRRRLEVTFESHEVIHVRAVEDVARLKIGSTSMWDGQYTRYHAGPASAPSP | t
Pbx1CASH domain (Cryptococcus neoformans) (protein) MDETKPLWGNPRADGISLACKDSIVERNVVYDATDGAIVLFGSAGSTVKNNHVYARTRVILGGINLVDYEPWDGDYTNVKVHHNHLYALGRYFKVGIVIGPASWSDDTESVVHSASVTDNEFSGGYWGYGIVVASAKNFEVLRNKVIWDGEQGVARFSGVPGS | t

Shift focus to the following entry.
Prompt: Hi, just wondering whether SefD (Salmonella enterica), Q9L6K6 (protein) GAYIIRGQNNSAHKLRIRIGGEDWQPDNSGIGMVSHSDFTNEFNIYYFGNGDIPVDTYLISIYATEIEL shows glycan array binding signal (z-score) of -0.3 or higher.
Response: f
